- TEST_SYSTEM: human recombinant PLK4 (Homo sapiens (Human), UniProt O00444)
- Sequence (O00444 whole entry): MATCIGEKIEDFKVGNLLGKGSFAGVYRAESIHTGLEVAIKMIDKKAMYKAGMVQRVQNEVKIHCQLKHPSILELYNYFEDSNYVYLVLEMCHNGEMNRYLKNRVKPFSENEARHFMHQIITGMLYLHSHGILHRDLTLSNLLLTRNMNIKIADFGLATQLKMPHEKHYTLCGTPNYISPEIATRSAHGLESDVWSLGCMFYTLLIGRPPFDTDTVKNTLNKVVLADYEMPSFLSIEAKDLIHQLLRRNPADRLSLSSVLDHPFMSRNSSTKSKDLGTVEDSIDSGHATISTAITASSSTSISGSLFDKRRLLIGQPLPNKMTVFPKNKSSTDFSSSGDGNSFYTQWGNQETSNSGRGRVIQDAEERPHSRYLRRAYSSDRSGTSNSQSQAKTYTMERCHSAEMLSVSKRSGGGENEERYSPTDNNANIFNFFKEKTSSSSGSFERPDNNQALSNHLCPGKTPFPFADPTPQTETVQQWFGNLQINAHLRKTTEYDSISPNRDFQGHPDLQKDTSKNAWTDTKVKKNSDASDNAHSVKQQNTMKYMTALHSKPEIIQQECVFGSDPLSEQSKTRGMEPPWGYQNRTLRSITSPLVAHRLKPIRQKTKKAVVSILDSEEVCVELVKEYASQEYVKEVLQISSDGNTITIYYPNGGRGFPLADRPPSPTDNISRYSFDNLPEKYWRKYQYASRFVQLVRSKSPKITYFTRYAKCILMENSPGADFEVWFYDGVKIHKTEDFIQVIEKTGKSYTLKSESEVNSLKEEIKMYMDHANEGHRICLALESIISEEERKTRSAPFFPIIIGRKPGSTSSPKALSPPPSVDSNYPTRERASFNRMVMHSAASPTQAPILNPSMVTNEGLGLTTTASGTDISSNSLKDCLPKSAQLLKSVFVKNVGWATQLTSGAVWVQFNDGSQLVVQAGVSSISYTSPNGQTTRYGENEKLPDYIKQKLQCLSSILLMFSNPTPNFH
- PROTOCOL: PLK4 Biochemical Assay (ADP-Glo)
- SETUP_CONDITIONS: 0.5 nM PLK4, 8.0 µM ATP, 4.7 µM MBP, 6 hours at RT
pIC50: −log10 of the molar value.
READOUT: pIC50

[
  {
    "MOLECULE": "COc1ccc2c(c1)[C@]1(C[C@H]1c1ccc3c(Nc4cc(C)c(C(=O)N(C)C)nc4OC)n[nH]c3c1)C(=O)N2 [Example 238]",
    "READOUT": "pIC50",
    "OBSERVED_VALUE": 8.87
  },
  {
    "MOLECULE": "COc1ccc2c(c1)[C@]1(C[C@H]1c1ccc3c(Nc4nc(C5COC5)cnc4OC)n[nH]c3c1)C(=O)N2 [Example 100]",
    "READOUT": "pIC50",
    "OBSERVED_VALUE": 8.76
  }
]

(I) COc1ccc2c(c1)[C@]1(C[C@H]1c1ccc3c(Nc4cc5oc(C)nc5cc4Cl)n[nH]c3c1)C(=O)N2 [Example 252]
(II) COc1ccc2c(c1)[C@]1(C[C@H]1c1ccc3c(Nc4nc(N5CCOCC5)ncc4Cl)n[nH]c3c1)C(=O)N2 [Example 103]
QUERY: Which shows the larger pIC50 value: I or II ? Answer by stating the label of the chosen item.
RESULT: II
(II: 8.55, I: 8.03)

---

- TEST_SYSTEM: human recombinant PLK4 (Homo sapiens (Human), UniProt O00444)
- PROTOCOL: PLK4 Biochemical Assay (ADP-Glo)
- SETUP_CONDITIONS: 0.5 nM PLK4, 8.0 µM ATP, 4.7 µM MBP, 6 hours at RT
pIC50: −log10 of the molar value.
READOUT: pIC50

(I) COc1ccc2c(c1)[C@]1(C[C@H]1c1ccc3c(Nc4ncnc(N5CC(OC)C5)c4Cl)n[nH]c3c1)C(=O)N2
(II) COc1ccc2c(c1)[C@]1(C[C@H]1c1ccc3c(Nc4cn(C)nc4C)n[nH]c3c1)C(=O)N2
QUERY: Between the entries labeled I and II , whose measured pIC50 is lower? Indicate which entry you chose by stating its label.
RESULT: II

---

- TEST_SYSTEM: human recombinant Aurora B (Homo sapiens (Human))
- PROTOCOL: Aurora B Kinase Biochemical Assay (ADP-Glo)
- SETUP_CONDITIONS: ratio of Aurora B IC50 to PLK4 IC50 (selectivity)
READOUT: [Aurora B IC50 (nM)]/[PLK4 IC50 (nM)]

[
  {
    "CHEMICAL_SMILES": "COc1ccc2c(c1)[C@]1(C[C@H]1c1ccc3c(Nc4ncc(S(=O)(=O)N(C)C)cc4OC)n[nH]c3c1)C(=O)N2",
    "[Aurora B IC50 (nM)]/[PLK4 IC50 (nM)]": 222.8395
  },
  {
    "CHEMICAL_SMILES": "CCc1cnc(C)nc1Nc1n[nH]c2cc([C@@H]3C[C@@]34C(=O)Nc3ccc(OC)cc34)ccc12",
    "[Aurora B IC50 (nM)]/[PLK4 IC50 (nM)]": 107.8116
  }
]

(1) COc1ccc2c(c1)[C@]1(C[C@H]1c1ccc3c(Nc4nc(C)nc(N5CC(O)C5)c4Cl)n[nH]c3c1)C(=O)N2
(2) COc1ccc2c(c1)[C@]1(C[C@H]1c1ccc3c(Nc4cc(C(=O)N(C)C)ccc4OC)n[nH]c3c1)C(=O)N2
QUERY: Determine, for 1 and 2 , which has the greater value of [Aurora B IC50 (nM)]/[PLK4 IC50 (nM)]. // output: label of the selected item
RESULT: 2
(2: 1300.3869, 1: 405.2156)

---

- TEST_SYSTEM: human recombinant Aurora B (Homo sapiens (Human), UniProt Q96GD4)
- Sequence (Q96GD4 whole entry): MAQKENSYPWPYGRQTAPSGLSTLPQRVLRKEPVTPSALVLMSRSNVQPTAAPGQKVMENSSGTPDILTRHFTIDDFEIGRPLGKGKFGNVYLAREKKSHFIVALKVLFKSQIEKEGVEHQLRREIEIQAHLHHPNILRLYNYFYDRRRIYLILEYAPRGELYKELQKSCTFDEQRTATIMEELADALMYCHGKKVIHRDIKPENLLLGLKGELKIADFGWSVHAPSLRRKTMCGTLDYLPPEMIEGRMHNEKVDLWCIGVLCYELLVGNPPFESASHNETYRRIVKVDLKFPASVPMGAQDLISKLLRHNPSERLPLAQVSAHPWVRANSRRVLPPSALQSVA
- PROTOCOL: Aurora B Kinase Biochemical Assay (ADP-Glo)
- SETUP_CONDITIONS: ratio of Aurora B IC50 to PLK4 IC50 (selectivity)
READOUT: [Aurora B IC50 (nM)]/[PLK4 IC50 (nM)]

Here is how some molecules turned out for [Aurora B IC50 (nM)]/[PLK4 IC50 (nM)].
[
  {
    "MOLECULE": "CCc1ncc(OC)c(Nc2n[nH]c3cc([C@@H]4C[C@@]45C(=O)Nc4ccc(OC)cc45)ccc23)n1",
    "[Aurora B IC50 (nM)]/[PLK4 IC50 (nM)]": 149.5859
  },
  {
    "MOLECULE": "COc1ccc2c(c1)[C@]1(C[C@H]1c1ccc3c(Nc4nc(C(C)C)nc(N5CCOCC5)c4OC)n[nH]c3c1)C(=O)N2",
    "[Aurora B IC50 (nM)]/[PLK4 IC50 (nM)]": 3067.539
  },
  {
    "MOLECULE": "COc1ccc2c(c1)[C@]1(C[C@H]1c1ccc3c(Nc4ncc(S(=O)(=O)C5CCOCC5)cc4OC)n[nH]c3c1)C(=O)N2",
    "[Aurora B IC50 (nM)]/[PLK4 IC50 (nM)]": 835.2904
  }
]

(1) Cc1ncc(OC(F)F)c(Nc2n[nH]c3c(F)c([C@@H]4C[C@@]45C(=O)Nc4ccc(F)cc45)ccc23)n1
(2) COc1ccc2c(c1)[C@]1(C[C@H]1c1ccc3c(Nc4nc(C(C)C)nc(N5CCS(=O)(=O)CC5)c4Cl)n[nH]c3c1)C(=O)N2
(3) COc1ccc2c(c1)[C@]1(C[C@H]1c1ccc3c(Nc4cn(C)nc4C#N)n[nH]c3c1)C(=O)N2
(4) COc1ccc2c(c1)[C@]1(C[C@H]1c1ccc3c(Nc4ccc(C(=O)NCC5CC5)nc4OC)n[nH]c3c1)C(=O)N2
(5) COc1ccc2c(c1)[C@]1(C[C@H]1c1ccc3c(Nc4cc(N5CCCOCC5)ncn4)n[nH]c3c1)C(=O)N2
QUERY: // ascending sort on recorded [Aurora B IC50 (nM)]/[PLK4 IC50 (nM)] Put the labels in the requested order and write them down.
RESULT: 5, 3, 1, 4, 2

---

- TEST_SYSTEM: human recombinant Aurora B (Homo sapiens (Human))
- PROTOCOL: Aurora B Kinase Biochemical Assay (ADP-Glo)
- SETUP_CONDITIONS: ratio of Aurora B IC50 to PLK4 IC50 (selectivity)
READOUT: [Aurora B IC50 (nM)]/[PLK4 IC50 (nM)]

[
  {
    "CHEMICAL_SMILES": "COc1ccc2c(c1)[C@]1(C[C@H]1c1ccc3c(Nc4nc(C5CC5)nc(N5CC(O)C5)c4OC)n[nH]c3c1)C(=O)N2.O=C(O)C(F)(F)F",
    "READOUT": "[Aurora B IC50 (nM)]/[PLK4 IC50 (nM)]",
    "OBSERVED_VALUE": 220.4239
  }
]

(a) COc1ccc2c(c1)[C@]1(C[C@H]1c1ccc3c(Nc4nc(C)ncc4OC)n[nH]c3c1F)C(=O)N2
(b) COc1ccc2c(c1)[C@]1(C[C@H]1c1ccc3c(Nc4nc(N5CCS(=O)(=O)CC5)ncc4OC)n[nH]c3c1)C(=O)N2
QUERY: Consider entries a and b . Which has the numerically lower [Aurora B IC50 (nM)]/[PLK4 IC50 (nM)]? Field: selected label. Fill in the label of the entry you choose.
RESULT: a
(a: 84.1, b: 279.1432)

---

- TEST_SYSTEM: human recombinant PLK4 (Homo sapiens (Human), UniProt O00444)
- PROTOCOL: PLK4 Biochemical Assay (ADP-Glo)
- SETUP_CONDITIONS: 0.5 nM PLK4, 8.0 µM ATP, 4.7 µM MBP, 6 hours at RT
READOUT: IC50 (nM)

// worked examples, IC50 included
[
  {
    "COMPOUND": "COc1ccc2c(c1)[C@]1(C[C@H]1c1ccc3c(Nc4nccc5c4OC[C@@H]5CO)n[nH]c3c1)C(=O)N2 [Example 33]",
    "TEST_SYSTEM": "human recombinant PLK4 (Homo sapiens (Human), UniProt O00444)",
    "IC50 [nM]": 5.91
  },
  {
    "COMPOUND": "COc1ccc2c(c1)[C@]1(C[C@H]1c1ccc3c(Nc4ccc(C(=O)N5CCC(F)(F)CC5)nc4OC)n[nH]c3c1)C(=O)N2 [Example 185]",
    "TEST_SYSTEM": "human recombinant PLK4 (Homo sapiens (Human), UniProt O00444)",
    "IC50 [nM]": 1.96
  },
  {
    "COMPOUND": "COc1ccc2c(c1)[C@]1(C[C@H]1c1ccc3c(Nc4nc(C)nc(N5CCOCC5)c4OC)n[nH]c3c1)C(=O)N2 [Example 41]",
    "TEST_SYSTEM": "human recombinant PLK4 (Homo sapiens (Human), UniProt O00444)",
    "IC50 [nM]": 2.71
  }
]

(1) CCc1ncc(OC)c(Nc2n[nH]c3cc([C@@H]4C[C@@]45C(=O)Nc4ccc(OC)cc45)ccc23)n1 [Example 160]
(2) COc1ccc2c(c1)[C@]1(C[C@H]1c1ccc3c(Nc4nc(C)ncc4SC)n[nH]c3c1)C(=O)N2 [Example 162]
(3) CCOc1cc(S(C)(=O)=O)ccc1Nc1n[nH]c2cc([C@@H]3C[C@@]34C(=O)Nc3ccc(OC)cc34)ccc12 [Example 272]
(4) COc1cnc(C)nc1Nc1n[nH]c2cc([C@@H]3C[C@]34C(=O)Nc3ccc(C)cc34)ccc12 [Example 127]
QUERY: List these items ordered by IC50, big to small. Submit the labels in the order that the ranking request calls for.
RESULT: 4, 2, 1, 3
(4: 2200 nM, 2: 8.39 nM, 1: 1.93 nM, 3: 0.833 nM)
